Where do these numbers come from? They come from paper PMC7294525.

Biological target: SARS-CoV-2 main protease (M^pro) (Severe acute respiratory syndrome coronavirus 2, UniProt P0DTD1)
Assay: biochemical
pIC50: −log10 of the molar value. Peptide text beside a SMILES is read from it. * marks the point of attachment. Cbz = O=C(OCc1ccccc1)*
assay_readout: pIC50

> print(dat)
                                   molecule  assay.readout  reported.result
1  CN(C)C(=O)COC(=O)Cc1ccc(OC(=O)c2ccc(NC(=N)N)cc2)cc1          pIC50           < 4.70
2  Cc1cccc(C)c1OCC(=O)N[C@@H](Cc1ccccc1)[C@@H](O)C[C@H](Cc1ccccc1)NC(=O)[C@H](C(C)C)N1CCCNC1=O          pIC50           < 4.70
3  CC(C)[C@H](NC(=O)OCc1ccccc1)C(=O)N[C@H](C=O)Cc1ccccc1 [compound 57, calpain inhibitor III] (Cbz-Val-Phe-aldehyde)          pIC50           < 4.70

* * *

Biological target: EV-A71 3C protease (Human enterovirus 71)
Peptide text beside a SMILES is read from it. * marks the point of attachment. Cbz = O=C(OCc1ccccc1)*

compound	assayed_system	IC50
CC(C)(C)NC(=O)N[C@H](C(=O)N1C[C@H]2[C@@H]([C@H]1C(=O)NC(CC1CCC1)C(=O)C(N)=O)C2(C)C)C(C)(C)C (stereo partly drawn) [compound 28, boceprevir]	EV-A71 3C protease (Human enterovirus 71)	> 20 µM
CC(C)C[C@@H](C=O)NC(=O)[C@H](CC(C)C)NC(=O)[C@H](CC(C)C)NC(=O)OCc1ccccc1 [compound 43, MG-132] (Cbz-Leu-Leu-Leu-aldehyde)	EV-A71 3C protease (Human enterovirus 71)	> 20 µM
CCCC[C@H](NC(=O)[C@@H]1[C@@H]2[C@H](CN1C(=O)[C@@H](NC(=O)NC1(CS(=O)(=O)C(C)(C)C)CCCCC1)C(C)(C)C)C2(C)C)C(=O)C(=O)NC1CC1 [compound 29, narlaprevir]	EV-A71 3C protease (Human enterovirus 71)	> 20 µM

* * *

Target: EV-A71 2A protease (Human enterovirus 71, UniProt Q66478)
Sequence (Q66478 863-1012 limits assumed): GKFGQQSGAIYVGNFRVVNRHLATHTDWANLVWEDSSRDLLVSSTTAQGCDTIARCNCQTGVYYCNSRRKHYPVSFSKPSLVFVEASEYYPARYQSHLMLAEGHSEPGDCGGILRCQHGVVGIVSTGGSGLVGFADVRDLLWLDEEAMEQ
pIC50: −log10 of the molar value. Peptide text beside a SMILES is read from it. * marks the point of attachment. Cbz = O=C(OCc1ccccc1)*

molecule	pIC50
CC(C)(C)NC(=O)N[C@H](C(=O)N1C[C@H]2[C@@H]([C@H]1C(=O)NC(CC1CCC1)C(=O)C(N)=O)C2(C)C)C(C)(C)C (stereo partly drawn) [compound 28, boceprevir]	< 4.70
CCCC[C@H](NC(=O)[C@@H]1[C@@H]2[C@H](CN1C(=O)[C@@H](NC(=O)NC1(CS(=O)(=O)C(C)(C)C)CCCCC1)C(C)(C)C)C2(C)C)C(=O)C(=O)NC1CC1 [compound 29, narlaprevir]	< 4.70
CC(C)C[C@@H](C=O)NC(=O)[C@H](CC(C)C)NC(=O)[C@H](CC(C)C)NC(=O)OCc1ccccc1 [compound 43, MG-132] (Cbz-Leu-Leu-Leu-aldehyde)	< 4.70
